# Species on record: Rattus norvegicus
# test-summary: Open TG-GATES - Regimen: Daily Repeat
# Type: toxicity, organism-based, Sprague-Dawley
# Parameters: regimen Daily Repeat, gender Male, age 6 weeks
# assay-conditions: in vivo, po, 0 mg/kg, 72 h, tissue Plasma, route gavage, dose level Control, time 3 day
observable: TP (g/dL)

• O=C(O)c1ccccc1Nc1ccccc1 = 5.7
• CCO = 5.7
• CCN(CC)C(=S)SSC(=S)N(CC)CC = 5.5
• CCCCC1C(=O)N(c2ccccc2)N(c2ccccc2)C1=O = 6.1
• CN(C/C=C/C#CC(C)(C)C)Cc1cccc2ccccc12 = 5.6
• Nc1ccc(Cc2ccc(N)cc2)cc1 = 5.8
• CC(=O)[C@@]1(O)CC[C@H]2[C@@H]3C=C(Cl)C4=CC(=O)CC[C@]4(C)[C@H]3CC[C@@]21C = 5.4
• NS(=O)(=O)c1cc(C(=O)O)c(NCc2ccco2)cc1Cl [FUROSEMIDE] = 5.8
• O=c1ccc2ccccc2o1 = 5.6
• CN(CCOc1ccc(CC2SC(=O)NC2=O)cc1)c1ccccn1.O=C(O)/C=C\C(=O)O (stereo not given) [ROSIGLITAZONE MALEATE] = 5.8

====

Listed here: items and their measured RALB.
# Species: Rattus norvegicus
# test-summary: Open TG-GATES - Regimen: Daily Repeat
# Type: toxicity, organism-based, Sprague-Dawley
# Parameters: regimen Daily Repeat, gender Male, age 6 weeks
# assay-conditions: in vivo, po, 0 mg/kg, […], tissue Plasma, route gavage, dose level Control, time 14 day
observable: RALB (g/dL)

• CN(CCOc1ccc(CC2SC(=O)NC2=O)cc1)c1ccccn1.O=C(O)/C=C\C(=O)O (stereo not given) [ROSIGLITAZONE MALEATE] = 3.9
• CCCCNC(=O)NS(=O)(=O)c1ccc(C)cc1 [TOLBUTAMIDE] = 2.7
• CC(S)C(=O)NCC(=O)O (stereo not given) = 3.1
• CC(=O)[C@@]1(O)CC[C@H]2[C@@H]3C=C(Cl)C4=CC(=O)CC[C@]4(C)[C@H]3CC[C@@]21C = 3
• O=C(O)c1ccccc1Nc1ccccc1 = 2.7

====

# Species on record: Rattus norvegicus
# test-summary: Open TG-GATES - Regimen: Daily Repeat
# Type: toxicity, organism-based, Sprague-Dawley
# Parameters: regimen Daily Repeat, gender Male, age 6 weeks
# assay-conditions: in vivo, po, 100 mg/kg, […], tissue Plasma, route gavage, dose level Low, time 28 day
observable: A/G

- CC(S)C(=O)NCC(=O)O (centres undefined): 1.2
- CCCCNC(=O)NS(=O)(=O)c1ccc(C)cc1 [TOLBUTAMIDE]: 0.8
- O=C(O)c1ccccc1Nc1ccccc1: 0.8
- CC(=O)[C@@]1(O)CC[C@H]2[C@@H]3C=C(Cl)C4=CC(=O)CC[C@]4(C)[C@H]3CC[C@@]21C: 1.1

====

# Species on record: Rattus norvegicus
# test-summary: Open TG-GATES - Regimen: Daily Repeat
# Type: toxicity, organism-based, Sprague-Dawley
# Parameters: regimen Daily Repeat, gender Male, age 6 weeks
# assay-conditions: in vivo, po, 100 mg/kg, […], tissue Blood, route gavage, dose level Low, time 28 day
Let's look at some compounds and their measured APTT.
observable: APTT (s)

* CCCCNC(=O)NS(=O)(=O)c1ccc(C)cc1 [TOLBUTAMIDE] | 17.5
* CC(=O)[C@@]1(O)CC[C@H]2[C@@H]3C=C(Cl)C4=CC(=O)CC[C@]4(C)[C@H]3CC[C@@]21C | 27.1
* CC(S)C(=O)NCC(=O)O (centres undefined) | 25.2
* O=C(O)c1ccccc1Nc1ccccc1 | 17.2
